Data provenance: PubChem BioAssay AID1527

System: VIM-2 metallo-beta-lactamase (Pseudomonas aeruginosa)
test: inhibition of VIM-2 nitrocefin hydrolysis – biochemical, epi-absorbance readout, Pseudomonas aeruginosa enzyme, primary screen (AID 1527);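 note: red hydrolysis product quenches plate fluorescence so inhibitors raise well fluorescence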
details: purified VIM-2, nitrocefin hydrolysis, epi-absorbance fluorescence; at 5.6 µM
Out of some 290,000 compounds screened, about 2,600 (0.9%) were called active.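 Rule for the calls: active = inhibition above the mean of all tested compounds plus 3 SD, cutoff set per screening run (cut at about 7.5% in these data); inactive = the rest.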 The sample as a whole holds a higher share of actives than the screen did.
Outcome codes: active, inactive

[[record]]
molecule = "Cc1ccc(C(=O)N/C(=C\\c2ccc(F)cc2)C(=O)NCCN2CCOCC2)cc1"
assigned_label = "inactive"

[[record]]
molecule = "O=C(NCC1CCCO1)c1ccccc1-c1nc(-c2ccccc2Cl)no1 (configuration not stated)"
assigned_label = "inactive"

[[record]]
molecule = "CC(=O)c1ccc(-c2ccc(Cn3c(C)nc4cc(N)c(C)nc43)cc2)cc1"
assigned_label = "active"

[[record]]
molecule = "Cc1cc2nc3c(=O)n(Cc4ccccc4)c(=O)[nH]c3nc2cc1N"
assigned_label = "active"

[[record]]
molecule = "Cc1[nH]n(-c2ccccc2)c(=O)c1N=Nc1ccccc1C(=O)N1CCCCC1"
assigned_label = "inactive"

[[record]]
molecule = "Cc1ccc2nc(Nc3ccccc3)cc(C)c2c1"
assigned_label = "inactive"

[[record]]
molecule = "Cc1ccc2nc(C)c3c(c2c1)N(c1ccccc1)CC3"
assigned_label = "active"

[[record]]
molecule = "CCN(CC)CCCNC(=O)c1c(O)c2cc(F)cc3c2n(c1=O)C(C)CC3 (configuration not stated)"
assigned_label = "active"

[[record]]
molecule = "O=c1[nH]c2c(c(=O)n1Cc1ccccc1)CCC2"
assigned_label = "inactive"

[[record]]
molecule = "COc1ccccc1NC(=O)c1cc(N2C(=O)C3C4CCC(C4)C3C2=O)ccc1Cl (configuration not stated)"
assigned_label = "inactive"

[[record]]
molecule = "Cc1cccc(C)c1NC(=O)CS(=O)CC(=O)N1CCN(c2ccccc2)CC1 (configuration not stated)"
assigned_label = "inactive"

[[record]]
molecule = "Cc1[nH][nH]c(=O)c1N=Nc1ccccc1"
assigned_label = "inactive"

